target: KRAS^wt (wild type) protein binding to RBD region fragment of RAF1 protein (Homo sapiens (Human))
Sequence (P01116-2 other isoform, or with tags, fused parts or gaps): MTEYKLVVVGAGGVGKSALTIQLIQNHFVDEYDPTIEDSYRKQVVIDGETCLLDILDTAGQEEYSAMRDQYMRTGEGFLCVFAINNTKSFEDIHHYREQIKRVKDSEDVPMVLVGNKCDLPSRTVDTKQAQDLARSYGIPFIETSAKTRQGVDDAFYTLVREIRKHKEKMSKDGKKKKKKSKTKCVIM
pIC50: −log10 of the molar value.
Hi, to clarify the labels: TRUE covers pIC50 from 7 upward, FALSE covers anything below 7.

// inclusive: pIC50 at least 7? input: C#Cc1cccc2cc(O)cc(-c3ncc4c(N5CC6CCC(C5)N6)nc(OCC56CCCN5CCC(=C)C6)nc4c3F)c12 (stereo not drawn)
FALSE

// inclusive: pIC50 at least 7? input: C#Cc1cccc2cccc(-c3ncc4c(N5C[C@H]6C=C[C@@H](C5)N6)nc(OCC56CCCN5CCC6)nc4c3F)c12
FALSE

// inclusive: pIC50 at least 7? input: C#Cc1cccc2cc(O)cc(-c3ncc4c(N5C[C@H]6C=C[C@@H](C5)N6)nc(OCC56CCCN5CC(F)(F)C6)nc4c3F)c12 (stereo partly drawn)
FALSE

// inclusive: pIC50 at least 7? input: C#Cc1cccc2cc(O)cc(-c3ncc4c(N5C[C@H]6CC[C@@H](C5)N6)nc(OCC56CCCN5CC(=CF)C6)nc4c3F)c12 (stereo partly drawn)
TRUE

// inclusive: pIC50 at least 7? input: C#Cc1cccc2cc(O)cc(-c3ncc4c(N5C[C@H]6C=C[C@@H](C5)N6)nc(OCC56CCCN5CCC6)nc4c3F)c12
FALSE

* * *

target: KRAS^G12D mutant protein binding to RBD region fragment of RAF1 protein (Homo sapiens (Human), UniProt P01116, G12D); test: KRAS-RAF1 binding assay (HTRF), KRAS G12D; settings: His-KRAS^G12D, GST-RAF1-RBD, GTP
Sequence (P01116-2 other isoform, or with tags, fused parts or gaps G12D): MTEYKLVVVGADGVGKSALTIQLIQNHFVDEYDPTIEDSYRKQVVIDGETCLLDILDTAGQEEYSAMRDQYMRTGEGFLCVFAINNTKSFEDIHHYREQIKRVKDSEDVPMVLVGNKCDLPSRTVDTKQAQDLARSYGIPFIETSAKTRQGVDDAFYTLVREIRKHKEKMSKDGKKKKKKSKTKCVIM
Description: […]
readout_type: IC50 (µM)
Number in µM, nothing else.

I have this compound here, C#Cc1cccc2cc(O)cc(-c3ncc4c(N5C[C@H]6C=C[C@@H](C5)N6)nc(OCC56CCCN5CC(F)(F)C6)nc4c3F)c12 (stereo partly drawn) [Example Z15] , and I need its recorded IC50.
0.033

I have this compound here, C#Cc1cccc2cc(O)cc(-c3ncc4c(N5C[C@H]6CC[C@@H](C5)N6)nc(OCC56CC(=C)CN5CC(F)C6)nc4c3F)c12 (stereo partly drawn) [Example Z17] , and I need its recorded IC50.
0.05

I have this compound here, C#Cc1cccc2cc(O)cc(-c3ncc4c(N5C[C@H]6CC[C@@H](C5)N6)nc(OCC56CCN5CC(=C)C6)nc4c3F)c12 (stereo partly drawn) [Example Z19] , and I need its recorded IC50.
0.046

* * *

tested on: AsPC-1 cells (KRAS^G12D mutation); assay: Cell proliferation inhibition assay (3D, CellTiter-Glo), AsPC-1; assay type: cell-based, human; details: Homo sapiens, ASPC1, 120 h, 3D cell model, 5 days
For each record, write down the corresponding IC50.
Number in nM, nothing else.

I have this compound here, C#Cc1c(F)ccc2cc(O)cc(-c3ncc4c(N5C[C@H]6CC[C@@H](C5)N6)nc(OCC56CC(=C)CN5[C@H]5C[C@H]5C6)nc4c3F)c12 (some centres unmarked) [Example Z210] , and I need its recorded IC50.
176

I have this compound here, C#Cc1cccc2cc(O)cc(-c3ncc4c(N5C[C@H]6CC[C@@H](C5)N6)nc(OCC56CCN5CC(=C)C6)nc4c3F)c12 (some centres unmarked) [Example Z19] , and I need its recorded IC50.
68.3

I have this compound here, C#Cc1c(Cl)ccc2cc(O)cc(-c3ncc4c(N5C[C@H]6CC[C@@H](C5)N6)nc(OCC56CC(=C)CN5CC(=C)C6)nc4c3F)c12 [Example Z216] , and I need its recorded IC50.
43.7

I have this compound here, C#Cc1c(F)ccc2cc(O)cc(-c3ncc4c(N5C[C@H]6CC[C@@H](C5)N6)nc(OC[C@@]56CCCN5CC(=C)C6)nc4c3F)c12 [Example Z12] , and I need its recorded IC50.
12.5

I have this compound here, C#Cc1cccc2cc(O)cc(-c3ncc4c(N5C[C@H]6CC[C@@H](C5)N6)nc(OCC56CC(=C)CN5CC(F)C6)nc4c3F)c12 (some centres unmarked) [Example Z17] , and I need its recorded IC50.
35.7
